Reference source: patent US20090209525A1

Experimental target: M1 W101A receptor (Rattus norvegicus, UniProt P08482, W101A)
Construct: expressed in transfected cells
Sequence (P08482 1-460 W101A): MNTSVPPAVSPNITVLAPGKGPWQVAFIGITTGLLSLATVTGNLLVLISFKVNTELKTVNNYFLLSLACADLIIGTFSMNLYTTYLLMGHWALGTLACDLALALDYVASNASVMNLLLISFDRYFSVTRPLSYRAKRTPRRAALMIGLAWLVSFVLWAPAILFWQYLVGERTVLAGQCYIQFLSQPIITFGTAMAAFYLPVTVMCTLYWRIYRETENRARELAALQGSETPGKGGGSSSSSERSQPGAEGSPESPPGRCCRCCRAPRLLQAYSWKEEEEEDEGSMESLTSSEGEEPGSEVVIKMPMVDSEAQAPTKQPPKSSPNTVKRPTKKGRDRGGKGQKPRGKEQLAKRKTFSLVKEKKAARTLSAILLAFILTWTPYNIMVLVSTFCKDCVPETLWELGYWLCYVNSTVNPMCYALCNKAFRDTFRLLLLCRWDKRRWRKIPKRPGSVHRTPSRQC
Protocol: R-SAT HTS on M1 W101A receptor
Format: cell-based
Experimental setup: compound at 3 μM, triplicate retest, activity over basal cellular response
// condition not met strictly below 4 in 3 μM Avg.; condition met otherwise

CCCOC1CCN(C[C@@H](C)CN2C(=O)CCc3ccccc32)CC1.O=C(O)C(=O)O | condition met
CCOCCC1CCN(CCCn2c(=O)[nH]c3ccccc32)CC1.O=C(O)C(F)(F)F | condition not met
CCCCC1CCN(CCCN2C(=O)CCc3cc(OC)ccc32)CC1.O=C(O)C(=O)O | condition met
CC(C)COc1ccc(CC(=O)N(Cc2ccc(F)cc2)C2CCN(CCCN3C(=O)OC[C@@H]3C(C)C)CC2)cc1.O=C(O)C(=O)O | condition not met
CCCCC1CCN(CCCn2c(=O)oc3c(Cl)cc(Cl)c(Cl)c32)CC1.O=C(O)C(=O)O | condition not met
CCCCC1CCN(C[C@@H](C)Cn2c(=O)ccc3ccccc32)CC1.O=C(O)C(O)C(O)C(=O)O | condition met
CCCCC1CCN(CCCN2C(=O)COc3ccc(C(C)=O)cc32)CC1 | condition not met
CCCOC1CCN(C[C@@H](C)CN2C(=O)COc3ccccc32)CC1.O=C(O)C(=O)O | condition met
CCCOC1CCN(C[C@@H](C)CN2C(=O)COc3ccccc32)CC1 | condition met
COCCC1CCN(CCCn2c(=O)sc3ccccc32)CC1.O=C(O)C(=O)O | condition not met
CCCCC1CCN(CCCn2c(=O)ccc3cc(F)ccc32)CC1 | condition not met
CCCC=C1CCN(C[C@@H](C)CN2C(=O)COc3ccc(F)cc32)CC1.O=C(O)C(=O)O | condition met
CCCOC1CCN(C[C@@H](C)Cn2c(=O)ccc3ccccc32)CC1.O=C(O)C(=O)O | condition met
CCCCC1CCN(C[C@@H](C)CN2C(=O)COc3ccccc32)CC1.O=C(O)C(=O)O | condition not met
CCCCC1CCN(CCCN2C(=O)CCc3ccccc32)CC1.O=C(O)C(=O)O | condition not met
CCCOC1CCN(CCCn2c(=O)ccc3ccccc32)CC1 | condition met
CCCCC1CCN(CCCN2C(=O)COc3ccccc32)CC1.O=C(O)C(=O)O | condition not met
CCCCC1CCN(CCn2c(=O)[nH]c3ccccc32)CC1 | condition not met
CCCCC1CCN(C[C@@H](C)CN2C(=O)CCc3ccccc32)CC1.O=C(O)C(=O)O | condition not met
CCCCC1CCN(CCCN2C(=O)CSc3ccccc32)CC1.O=C(O)C(=O)O | condition not met

---

Recorded IC50 for the following compounds
Experimental target: rat M1 Y106A receptor (Rattus norvegicus, UniProt P08482, Y106A)
Sequence (P08482 1-460 Y106A): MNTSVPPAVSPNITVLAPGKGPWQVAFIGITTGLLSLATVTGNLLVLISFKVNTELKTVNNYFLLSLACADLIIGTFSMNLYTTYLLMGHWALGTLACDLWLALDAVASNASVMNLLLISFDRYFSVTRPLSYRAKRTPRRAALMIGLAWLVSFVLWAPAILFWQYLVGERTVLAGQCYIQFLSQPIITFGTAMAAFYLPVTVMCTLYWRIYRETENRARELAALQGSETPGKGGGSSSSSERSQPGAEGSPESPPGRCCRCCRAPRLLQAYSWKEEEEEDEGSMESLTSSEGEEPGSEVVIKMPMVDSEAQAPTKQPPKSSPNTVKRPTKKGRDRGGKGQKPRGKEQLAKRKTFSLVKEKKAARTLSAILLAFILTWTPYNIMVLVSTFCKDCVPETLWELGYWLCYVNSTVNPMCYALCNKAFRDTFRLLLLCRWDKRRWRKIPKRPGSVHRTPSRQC
Protocol: ^3H-NMS radioligand binding, Y106A
Endpoint name: IC50 (µM)

CCCCC1CCN(CCCN2C(=O)COc3cc(F)ccc32)CC1 | 3.16
Clc1ccc2c(c1)N=C(N1CCNCC1)c1ccccc1N2 | 0.0501
CCCCC1CCN(CCCC(=O)c2ccccc2C)CC1 | 5.01

---

Experimental target: rat M1 W101A receptor (Rattus norvegicus, UniProt P08482, W101A)
Construct: expressed in transfected cells
Protocol: R-SAT functional assay, W101A mutant
Type: cell-based
Experimental setup: pEC50, Table 10; M1 W101A
Endpoint name: EC50 (nM)

O=C1CCCN1CC#CCN1CCCC1 | 2510

---

Measured % Eff by item
Experimental target: rat M1 wild-type receptors (Rattus norvegicus)
Construct: expressed in transfected cells
Protocol: R-SAT functional assay, wild-type receptor
Assay type: cell-based
Experimental setup: Table 10; M1 Wild-Type; maximum response relative to carbachol
Endpoint name: % Eff

O=C1CCCN1CC#CCN1CCCC1 | 91%
CN1CCN(C2=Nc3ccccc3Oc3ccc(Cl)cc32)CC1.O=C(O)CCC(=O)O | 3%
CCCCC1CCN(CCCN2C(=O)COc3cc(F)ccc32)CC1 | 109%
CCCCC1CCN(CCCC(=O)c2ccccc2C)CC1 | 56%
Clc1ccc2c(c1)N=C(N1CCNCC1)c1ccccc1N2 | 93%

---

Experimental target: rat M1 wild-type receptor (RM1) (Rattus norvegicus, UniProt P08482)
Construct: expressed in transfected cells
Protocol: ^3H-NMS radioligand binding, wild-type
pIC50: −log10 of the molar value.
Endpoint name: pIC50

CCCCC1CCN(CCCN2C(=O)COc3cc(F)ccc32)CC1 | 5.90
Clc1ccc2c(c1)N=C(N1CCNCC1)c1ccccc1N2 | 6.80
CCCCC1CCN(CCCC(=O)c2ccccc2C)CC1 | 5.30

---

Experimental target: rat M1 W101A receptor (Rattus norvegicus, UniProt P08482, W101A)
Construct: expressed in transfected cells
Protocol: Phosphatidyl inositol hydrolysis assay, W101A
Format: cell-based
Experimental setup: Table 6; PI hydrolysis; W101A
Endpoint name: EC50 (nM)

CCCCC1CCN(CCCN2C(=O)COc3cc(F)ccc32)CC1 | 1.58
Clc1ccc2c(c1)N=C(N1CCNCC1)c1ccccc1N2 | 316

---

Experimental target: rat M1 W101A receptor (Rattus norvegicus, UniProt P08482, W101A)
Construct: expressed in transfected cells
Protocol: R-SAT functional assay, W101A mutant
Type: cell-based
Experimental setup: pEC50, Table 4; M1 W101A
Experimental: Cells are co-transfected for 18 h with DMEM containing 0.08 micrograms/ml of an expression vector for the expression of the mutant receptor and 0.3 micrograms/ml pSI-Bgal (Promega, Madison Wis.), and 0.5% v/v Polyfect (Qiagen, Valencia Calif.), as recommended by the manufacturer. […] The media is removed from the plates, and beta-galactosidase activity is measured by the addition of o-nitrophenyl -d-galactopyranoside in phosphate-buffered saline with 5% Nonidet P-40. […]
pEC50: −log10 of the molar value.
Endpoint name: pEC50

O=C1CCCN1CC#CCN1CCCC1 [Oxotremorine] | 5.50

---

Experimental target: rat M1 S109A receptor (Rattus norvegicus, UniProt P08482, S109A)
Construct: expressed in transfected cells
Sequence (P08482 1-460 S109A): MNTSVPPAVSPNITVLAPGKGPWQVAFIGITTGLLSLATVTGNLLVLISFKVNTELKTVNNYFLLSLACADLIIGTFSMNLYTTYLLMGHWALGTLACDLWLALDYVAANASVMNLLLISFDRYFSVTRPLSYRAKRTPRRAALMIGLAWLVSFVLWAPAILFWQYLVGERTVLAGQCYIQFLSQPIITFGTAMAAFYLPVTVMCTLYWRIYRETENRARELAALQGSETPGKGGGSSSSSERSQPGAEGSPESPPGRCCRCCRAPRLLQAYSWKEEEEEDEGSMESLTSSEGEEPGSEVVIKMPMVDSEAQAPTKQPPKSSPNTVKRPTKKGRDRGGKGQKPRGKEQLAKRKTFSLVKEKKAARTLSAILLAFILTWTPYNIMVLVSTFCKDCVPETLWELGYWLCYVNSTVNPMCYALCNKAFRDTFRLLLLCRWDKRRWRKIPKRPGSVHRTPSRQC
Protocol: Phosphatidyl inositol hydrolysis assay, S109A
Assay type: cell-based
Experimental setup: Table 6; PI hydrolysis; S109A
Endpoint name: EC50 (nM)

CCCCC1CCN(CCCN2C(=O)COc3cc(F)ccc32)CC1 | 79.4
Clc1ccc2c(c1)N=C(N1CCNCC1)c1ccccc1N2 | 200
